# TARGET_OR_TEST_SYSTEM: α2A receptor (Homo sapiens)
# Construct: host or cells: LM(tk-) cells, line L-α2A
# Sequence (P08913 1-465): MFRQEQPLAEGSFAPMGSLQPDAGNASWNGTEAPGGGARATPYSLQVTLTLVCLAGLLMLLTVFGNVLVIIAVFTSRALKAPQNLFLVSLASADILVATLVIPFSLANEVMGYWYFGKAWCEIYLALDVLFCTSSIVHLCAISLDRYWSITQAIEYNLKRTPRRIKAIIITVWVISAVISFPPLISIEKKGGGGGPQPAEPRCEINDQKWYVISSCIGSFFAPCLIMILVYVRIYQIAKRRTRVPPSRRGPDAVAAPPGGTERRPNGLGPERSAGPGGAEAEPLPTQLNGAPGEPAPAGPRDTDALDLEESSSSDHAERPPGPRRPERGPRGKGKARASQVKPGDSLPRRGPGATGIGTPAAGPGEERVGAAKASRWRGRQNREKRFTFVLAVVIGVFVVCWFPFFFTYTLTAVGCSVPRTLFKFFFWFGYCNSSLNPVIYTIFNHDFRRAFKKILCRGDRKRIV
# TEST_DESCRIPTION: Competition binding, [3H]rauwolscine, human α2A receptor
Where a name gives a salt, the structure may show the parent alone.
Catalogue of compounds with associated Ki
Numbers only; they are read as nM.

Examples with answers:
# COMPOUND, OBSERVED_MEASUREMENT
records = [
    ("CCC1=C(C(=O)NCCCN2CCC(c3ccccc3)(c3ccccc3)CC2)C(c2ccc(N)cc2)C(C(=O)OC)=C(C)N1 (stereo not shown) [Example 114]", 2090),
    ("COC(=O)C1=C(C)NC(C)=C(C(=O)NCCN2CCC(c3ccccc3)(c3ccccc3)CC2)C1c1ccc([N+](=O)[O-])cc1 (stereo not shown) [Example 52, hydrochloride hemihydrate]", 513),
    ("COC(=O)C1=C(C)NC(C)=C(C(=O)NCCCN2CCC(c3ccccc3)(c3ccccc3)CC2)C1c1ccc2ccccc2c1 (stereo not shown) [Example 22]", 1580),
]

Which Ki value is on record for COC(=O)C1=C(C)NC(C)=C(C(=O)NCCCN2CCC(c3ccccc3)(c3ccccc3)CC2)C1c1ccc(C(F)(F)F)cc1 (stereo not shown) [Example 1] ?
2400

Same read-out for COC(=O)C1=C(C)NC(C)=C(C(=O)NCCCN2CCC(c3ccccc3)(c3ccccc3)CC2)C1c1ccc(C(=O)OC)cc1 (stereo not shown) [Example 25] ?
1510

Thanks! And COC(=O)C1=C(C)NC(C)=C(C(=O)NCCCN2CCC(c3ccccc3)(c3ccccc3)CC2)C1c1ccc(F)cc1 (stereo not shown) [Example 20] ?
1780

One more compound: CCNC(=O)C1=C(CC)NC(CC)=C(C(=O)NCCCN2CCC(C(=O)OCC)(c3ccccc3)CC2)C1c1ccc([N+](=O)[O-])cc1 (stereo not shown) [Example 182]
2190

What about this compound? COC(=O)C1=C(C)NC(C)=C(C(=O)NCCCN2CCC(c3ccccc3)(c3ccccc3)CC2)C1c1ccc(OC)c(OC)c1 (stereo not shown) [Example 26]
2140

---

# TARGET_OR_TEST_SYSTEM: α2A receptor (Homo sapiens, UniProt P08913)
# Construct: host or cells: LM(tk-) cells, line L-α2A
# TEST_DESCRIPTION: Competition binding, [3H]rauwolscine, human α2A receptor
# TEST_PARAMETERS: [3H]rauwolscine, LM(tk-) cell line L-α2A; SEM and n in lines below; read-out: pKi alpha-2 2a (converted)
Where a name gives a salt, the structure may show the parent alone.
Threshold 500 nM: Ki strictly smaller gives Condition met, otherwise Condition not met.

# MOLECULE, TARGET_OR_TEST_SYSTEM, CLASS_NAME
records = [
    ("CC1=C(C(=O)NCCCN2CCC(c3ccccc3)(c3ccccc3)CC2)C(c2ccc([N+](=O)[O-])cc2)c2c([nH]c(=O)[nH]c2=O)N1 (stereo not shown)", "α2A receptor (Homo sapiens, UniProt P08913)", "Condition not met"),
]

Hello, I'm reviewing records and need to know if Ki of CCC1=C(C(=O)NCCCN2CCC(c3ccccc3)(c3ccccc3)CC2)C(c2ccc([N+](=O)[O-])cc2)C(C(N)=O)=C(C)N1 (stereo not shown) [Example 81, hydrochloride] is below 500 nM. Could you check?
Condition met

Here is the next molecule: CCC1=C(C(N)=O)C(c2ccc([N+](=O)[O-])cc2)C(C(=O)NCCCN2CCC(c3ccccc3)(c3ccccc3)CC2)=C(CC)N1 (stereo not shown)
Condition met

---

# TARGET_OR_TEST_SYSTEM: α2C receptor (Homo sapiens, UniProt P18825)
# Construct: host or cells: LM(tk-) cells, line L-α2C
# Sequence (P18825 whole entry): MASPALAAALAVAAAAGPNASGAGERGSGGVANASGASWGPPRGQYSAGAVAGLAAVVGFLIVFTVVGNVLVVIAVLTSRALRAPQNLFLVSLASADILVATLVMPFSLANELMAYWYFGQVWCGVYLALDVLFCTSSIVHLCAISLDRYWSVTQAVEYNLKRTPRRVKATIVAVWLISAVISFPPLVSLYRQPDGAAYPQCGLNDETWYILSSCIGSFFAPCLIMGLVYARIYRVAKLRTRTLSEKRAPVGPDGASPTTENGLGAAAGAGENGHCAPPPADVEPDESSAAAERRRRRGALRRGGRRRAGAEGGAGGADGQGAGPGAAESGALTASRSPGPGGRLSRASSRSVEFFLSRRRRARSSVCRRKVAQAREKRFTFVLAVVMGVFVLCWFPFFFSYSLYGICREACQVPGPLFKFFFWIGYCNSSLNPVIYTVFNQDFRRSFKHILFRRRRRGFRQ
# TEST_DESCRIPTION: Competition binding, [3H]rauwolscine, human α2C receptor
# TEST_PARAMETERS: [3H]rauwolscine, human α2C receptor, LM(tk-) cells; read-out: PKi alpha-2 2c (converted)
# Protocol: The protocols for these experiments are given below. α2 Human Adrenergic Receptors: To determine the potency of […], antagonists at the α2 receptors, LM(tk−) cell lines stably transfected with the genes encoding the α2A, α2B, and α2C receptors were used. The cell line expressing the α2A receptor is designated L-α2A, and was deposited on Nov. […] Equilibrium competition binding assay were performed using [3H]rauwolscine (0.5 nM), and nonspecific binding was determined by incubation with 10 μM phentolamine. […]
PARAMETER_MEASURED: Ki
Include the unit right after the number.

Reference set (3 entries):
# COMPOUND, PARAMETER_MEASURED, OBSERVED_MEASUREMENT
records = [
    ("CCC1=C(C(=O)OCCO)C(c2ccc([N+](=O)[O-])cc2)C(C(=O)NCCCN2CCC(c3ccccc3)(c3ccccc3)CC2)=C(COC)N1 (stereo not shown) [Example 246]", "Ki", "2400 nM"),
    ("COC(=O)C1=C(C)NC(C)=C(C(=O)NCCCN2CCC(c3ccccc3)CC2)C1c1ccc2c(c1)OCO2 (stereo not shown) [Example 250]", "Ki", "36.3 nM"),
    ("CCC1=C(C(=O)NCCOC)C(c2ccc([N+](=O)[O-])cc2)C(C(=O)NCCCN2CCC(c3ccccc3)(c3ccccc3)CC2)=C(COC)N1 (stereo not shown) [Example 247]", "Ki", "302 nM"),
]

The record that follows has no Ki shown yet.
Dear colleague, I am looking for the recorded Ki of the following compound: COC(=O)C1(c2ccccc2)CCN(CCCNC(=O)C2=C(COCCN)NC(C)=C(C(C)=O)C2c2ccc(F)cc2)CC1 (stereo not shown) [Example 245]
316 nM

---

# TARGET_OR_TEST_SYSTEM: α1A Human Adrenergic Receptor (Homo sapiens)
# Construct: The entire coding region of α1A (1719 bp); expressed in transfected cells
# Sequence (P25100 whole entry): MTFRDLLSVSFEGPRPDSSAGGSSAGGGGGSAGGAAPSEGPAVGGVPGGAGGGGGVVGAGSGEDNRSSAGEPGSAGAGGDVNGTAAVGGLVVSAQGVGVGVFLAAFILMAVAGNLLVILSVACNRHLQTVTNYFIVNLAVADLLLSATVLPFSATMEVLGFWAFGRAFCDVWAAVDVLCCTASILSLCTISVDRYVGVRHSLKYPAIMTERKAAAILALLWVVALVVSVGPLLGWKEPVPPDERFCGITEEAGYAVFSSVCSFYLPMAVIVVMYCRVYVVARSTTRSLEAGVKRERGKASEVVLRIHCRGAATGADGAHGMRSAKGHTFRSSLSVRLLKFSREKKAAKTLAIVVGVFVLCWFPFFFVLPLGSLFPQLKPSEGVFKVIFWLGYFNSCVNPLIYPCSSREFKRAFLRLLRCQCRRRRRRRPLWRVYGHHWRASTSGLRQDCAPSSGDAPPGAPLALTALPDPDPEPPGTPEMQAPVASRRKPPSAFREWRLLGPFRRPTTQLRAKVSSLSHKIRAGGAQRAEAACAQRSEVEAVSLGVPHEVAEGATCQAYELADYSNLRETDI
# TEST_DESCRIPTION: Radioligand binding, [3H]prazosin, cloned human α1A adrenergic receptor
# TEST_PARAMETERS: pKi alpha-1 1a, [3H]prazosin, cloned human α1A receptor, LM(tk−) cell membranes
PARAMETER_MEASURED: Ki (nM)
Only the number, expressed in nM, is required.

For orientation, consider the following solved cases.
# MOLECULE, READING_UNIT, Ki
data = [
    ("CCC1=C(C(N)=O)C(c2ccc([N+](=O)[O-])cc2)C(C(=O)NCCCN2CCC(C#N)(c3ccccc3)CC2)=C(CC)N1 (single isomer, unassigned; (+)) [(+)-102]", "nM", 2880),
    ("CCC1=C(C(=O)OCCC#N)C(c2ccc([N+](=O)[O-])cc2)C(C(=O)NCCCN2CCC(c3ccccc3)(c3ccccc3)CC2)=C(COCCN=[N+]=[N-])N1 (centres unmarked)", "nM", 50.1),
    ("CCC1=C(C(N)=O)C(c2ccc([N+](=O)[O-])cc2)C(C(=O)NCCCN2CCC(C#N)(c3ccccc3)CC2)=C(CC)N1 (single isomer, unassigned; (-)) [(−)-102]", "nM", 6760),
    ("CNC(=O)C1=C(C)NC(C)=C(C(=O)NCCCN2CCC(O)(c3ccccc3)CC2)C1c1ccc([N+](=O)[O-])cc1 (centres unmarked)", "nM", 1070),
    ("CCC1=C(C(N)=O)C(c2ccc(S(C)(=O)=O)cc2)C(C(=O)NCCCN2CCC(c3ccccc3)(c3ccccc3)CC2)=C(CC)N1 (centres unmarked)", "nM", 186),
    ("CC1=C(C(N)=O)C(c2ccc(S(C)(=O)=O)cc2)C(C(=O)NCCCN2CCC(c3ccccc3)(c3ccccc3)CC2)=C(C)N1 (centres unmarked)", "nM", 2000),
    ("CCC1=C(C(=O)NCCCN2CCC(c3ccccc3)(c3ccccc3)CC2)C(c2ccc([N+](=O)[O-])cc2)C(C(=O)OC(C)(C)C)=C(COCCN=[N+]=[N-])N1 (centres unmarked)", "nM", 479),
]

Turning now to a further record.
Test system α1A Human Adrenergic Receptor (Homo sapiens); read-out Ki; what value for CCC1=C(C(=O)NCCCN2CCC(c3ccccc3)(c3ccccc3)CC2)C(c2cccc(OC)c2)C(C(N)=O)=C(C)N1 (centres unmarked) ?
692
